Ref: BindingDB's records for doi:10.7270/Q2MK6B9H

- Assay target: Ras-related protein Rab-7a (Canis lupus familiaris, UniProt P18067)
- Sequence (P18067 whole entry): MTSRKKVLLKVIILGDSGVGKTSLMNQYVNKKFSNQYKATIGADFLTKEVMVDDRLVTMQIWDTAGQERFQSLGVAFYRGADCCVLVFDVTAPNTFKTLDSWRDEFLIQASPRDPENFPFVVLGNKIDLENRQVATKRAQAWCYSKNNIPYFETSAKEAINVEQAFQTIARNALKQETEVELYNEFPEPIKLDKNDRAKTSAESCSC
- Test summary: Rab7 wildtype GTP binding inhibitors, SAR follow-up, biochemical, dog Rab7, bead multiplex flow cytometry, Bodipy-FL-GTP, pyrazoline series (AID 2041)
Metric: EC50

Recorded EC50, per entry:
FC(F)(F)c1cccc(N2N=C(c3ccc(Cl)cc3)CC2c2ccccc2Cl)c1 (stereo not given): > 30 µM
COc1ccc(C2CC(c3ccc(C)cc3)=NN2c2ccc(S(N)(=O)=O)cc2)cc1 (stereo not given): > 30 µM

Next compound, please.
**Q:** Please look up its EC50: O=[N+]([O-])c1cccc(C2C[C-](c3ccc(F)cc3)N=[N+]2c2ccccc2)c1 (stereo not given)
**A:** > 30 µM

* * *

- Assay target: Ras-related protein Rab-7a (Canis lupus familiaris)
- Test summary: Rab7 wildtype GTP binding inhibitors, SAR follow-up, biochemical, dog Rab7, bead multiplex flow cytometry, Bodipy-FL-GTP, pyrazoline series (AID 2041)
- Test conditions: inactive by the depositor's call
pEC50: −log10 of the molar value.
Metric: pEC50

Recorded pEC50, per entry:
O=S(=O)(c1ccc(N2N=C(c3ccccc3)CC2c2ccccc2)cc1)C(F)F (stereo not given): 6.29
COc1ccc(C2CC(c3cccc(Cl)c3)=NN2c2ccc(S(N)(=O)=O)cc2)cc1 (stereo not given) [UNM-0000306134]: 6.85

P: COc1ccc(C2=NN(c3ccccc3)C(c3ccc(Cl)cc3)C2)cc1 (stereo not given) [UNM-0000305833]
Q: Clc1ccc(N2N=C(c3ccccc3)CC2c2ccccc2)cc1 (stereo not given)
R: COc1ccc(C2=NN(c3cccc(F)c3)C(c3ccc(OC)cc3)C2)cc1 (stereo not given)
**Q:** Could you please order the items by pEC50, going from the lowest number to the highest? Hello, could you send the labels back in the order asked? Thank you.
**A:** Q, P, R
(Q: 5.18, P: 6.17, R: 6.98)
